This listing pairs compounds with measured pest or weed control at 200 µg/mL.
Test system: Blumeria graminis f. sp. tritici
Procedure Summary: Test I: wheat powdery mildew, preventive spray on wheat seedlings, visual disease rating
Study Conditions: Blumeria graminis, in Triticum aestivum, read-out: Test I rating (disease control), wheat powdery mildew; 100 = 100% disease control, 0 = no disease control relative to the controls
Field: value (include unit after the number)

Cc1nn(C)c(Oc2ccc(C#N)cc2F)c1-c1ccc(F)cc1Cl :: 99%
Cc1nn(C)c(Nc2c(F)cc(F)cc2Cl)c1-c1ccc(F)cc1F :: 100%
Cc1nn(C)c(Nc2c(F)cc(F)cc2Br)c1-c1ccc(F)cc1F :: 100%
Cc1nn(C)c(C(O)c2ccc(F)cc2F)c1-c1ccc(F)cc1Cl (stereo not drawn) :: 99%
Cc1nn(C)c(Oc2c(F)cc(C#N)cc2F)c1-c1ccc(F)cc1Br :: 100%

From here, focus on the item given below.
Query :: GET /values?readout=pest or weed control at 200 µg/mL&item= Cc1nn(C)c(Nc2ccc(F)cc2Cl)c1-c1ccc(F)cc1Cl
Result :: 100%
